Listing: IC50 of selected molecules
system: A549; experiment: MTT anti-proliferative assay, A549; assay type: cell-based; conditions: Homo sapiens; A549 cell line, MTT
Write the numeric value and append its unit.

Some solved entries appear below for comparison.
molecule="COc1ccc2[nH]c(=O)c(/C=C3\\SC(=O)N(CC(=O)Nc4ccc(Cl)cc4)C3=O)cc2c1 [Compound 10a]" value="85 µM"
molecule="O=C(CN1C(=O)SC(=C2C(=O)Nc3ccccc32)C1=O)NCCc1ccccc1 [Compound 14c]" value="282 µM"
molecule="O=C(CN1C(=O)SC(=C2C(=O)Nc3ccccc32)C1=O)Nc1cc(Cl)ccc1Cl [Compound 14b]" value="292 µM"

Please give the documented IC50 of COc1cccc2c1C(=O)c1c(O)c3c(c(O)c1C2=O)C[C@@](O)(C(=O)CO)C[C@@H]3O[C@H]1C[C@H](N)[C@H](O)[C@H](C)O1 [Doxorubicin, reference compound]
86.4 µM

Let me know recorded IC50 for COc1ccc2[nH]c(=O)c(/C=C3\SC(=O)N(CC(=O)Nc4cc(Cl)ccc4Cl)C3=O)cc2c1 [Compound 10b] , thanks.
92.5 µM

Given O=C(CN1C(=O)SC(=C2C(=O)Nc3ccccc32)C1=O)Nc1ccc(Cl)cc1 [Compound 14a] , respond with its IC50.
170 µM
